This collection of values is drawn from ChEMBL document CHEMBL4002565.

Test system: Mycobacterium tuberculosis
Assay: Inhibition of Mycobacterium tuberculosis His6-tagged wild type InhA expressed in Escherichia coli BL21 at 50 uM using DDCoA as substrate relative to control
Criterion: inhibition meeting or surpassing 30%. Met: T. Not met: F.

QUERY: // inclusive: inhibition at least 30%? input: CC(=O)c1cccc(C(=O)NNC(=O)c2ccc(-n3cccc3)cc2)c1
RESULT: T

QUERY: Entry O=C(NNC(=O)c1ccc(-n2cccc2)cc1)c1ccccc1 : is its inhibition no less than 30%?
RESULT: F

QUERY: Answer whether inhibition of O=C(NNC(=O)c1ccc(-n2cccc2)cc1)c1ccc(F)cc1 is greater than or equal to 30%.
RESULT: T

QUERY: Confirm if inhibition reported for the molecule Oc1cc(Cl)ccc1Oc1ccc(Cl)cc1Cl is 30% or above.
RESULT: T

QUERY: Is it the case that O=C(NNC(=O)c1ccc([N+](=O)[O-])cc1)c1ccc(-n2cccc2)cc1 has inhibition reaching or exceeding 30%?
RESULT: F

QUERY: Is inhibition for O=C(NNC(=O)c1ccc(-n2cccc2)cc1)c1ccc(Cl)cc1 at or above 30%?
RESULT: T
